Each recorded value in this set is attributed to paper doi:10.1101/2025.03.14.643303.

Tested on: adult S. mansoni worms
Assay remarks: Treatment of adult S. mansoni worms in culture with inhibitors (attachment to tissue culture substrate, morphology; single 10 μM and dose-response EC50)
Assay type: cell-based, Schistosoma mansoni
Measurement setup: 10 μM
Reported endpoint: time to detachment of adult worms in culture

O=C(C#Cc1cccnc1)Nc1ccc2oc(-c3ccccn3)nc2c1 ≤ 24 h

Consider the compound shown here: "O=C(C#Cc1ccccc1)Nc1ccc2oc(-c3ccccn3)nc2c1" What is its recorded time to detachment of adult worms in culture? ≤ 48 h

Item: "O=C(C#Cc1ccncc1)Nc1ccc2oc(-c3ccccn3)nc2c1" ≤ 24 h

Item: "O=C(C#Cc1ccccc1)Nc1ccc2oc(-c3ccncc3)nc2c1" ≤ 48 h

###

Target entity: H. sapiens p97 (P55072) (Homo sapiens)
Construct: 6xHis (C); made in house; host or cells: E. coli BL21 (DE3)
Assay remarks: p97 ATPase activity, ATP consumption assay (Kinase-Glo), IC50 / counter screen
Assay type: biochemical
Measurement setup: p97 enzyme; Suppl. Fig. 11D
Recorded pIC50 values for a group of compounds are listed next.
Scale: pIC50 equals -log10([C]), with [C] in mol/L.

O=C(C#Cc1ccccc1)Nc1ccc2oc(-c3ccncc3)nc2c1 4.92

Next compound, please.
Consider the compound shown here: "O=C(C#Cc1ccccc1)Nc1ccc2oc(-c3ccccn3)nc2c1" What is its recorded pIC50? 4.70

###

Test system: adult S. mansoni worms
Assay remarks: Treatment of adult S. mansoni worms in culture with inhibitors (attachment to tissue culture substrate, morphology; single 10 μM and dose-response EC50)
Assay type: cell-based, Schistosoma mansoni
Measurement setup: Schistosoma mansoni, read-out: S. mansoni EC50
Recorded EC50 values for a group of molecules are listed next.
Answer shape: numeric part, then the unit.

// known answers, use as guide
O=C(C#Cc1ccccc1)Nc1ccc2oc(-c3ccccc3)nc2c1 12 µM
O=C(C#Cc1ccccc1)Nc1ccc2oc(-c3cccnc3)nc2c1 25 µM

Consider the molecule shown here: "O=C(C#Cc1ccccc1)Nc1ccc2oc(-c3ccncc3)nc2c1" What is its recorded EC50? 9.9 µM

###

Target entity: UniProt G4M0P7
Sequence (G4M0P7 entry or part of it): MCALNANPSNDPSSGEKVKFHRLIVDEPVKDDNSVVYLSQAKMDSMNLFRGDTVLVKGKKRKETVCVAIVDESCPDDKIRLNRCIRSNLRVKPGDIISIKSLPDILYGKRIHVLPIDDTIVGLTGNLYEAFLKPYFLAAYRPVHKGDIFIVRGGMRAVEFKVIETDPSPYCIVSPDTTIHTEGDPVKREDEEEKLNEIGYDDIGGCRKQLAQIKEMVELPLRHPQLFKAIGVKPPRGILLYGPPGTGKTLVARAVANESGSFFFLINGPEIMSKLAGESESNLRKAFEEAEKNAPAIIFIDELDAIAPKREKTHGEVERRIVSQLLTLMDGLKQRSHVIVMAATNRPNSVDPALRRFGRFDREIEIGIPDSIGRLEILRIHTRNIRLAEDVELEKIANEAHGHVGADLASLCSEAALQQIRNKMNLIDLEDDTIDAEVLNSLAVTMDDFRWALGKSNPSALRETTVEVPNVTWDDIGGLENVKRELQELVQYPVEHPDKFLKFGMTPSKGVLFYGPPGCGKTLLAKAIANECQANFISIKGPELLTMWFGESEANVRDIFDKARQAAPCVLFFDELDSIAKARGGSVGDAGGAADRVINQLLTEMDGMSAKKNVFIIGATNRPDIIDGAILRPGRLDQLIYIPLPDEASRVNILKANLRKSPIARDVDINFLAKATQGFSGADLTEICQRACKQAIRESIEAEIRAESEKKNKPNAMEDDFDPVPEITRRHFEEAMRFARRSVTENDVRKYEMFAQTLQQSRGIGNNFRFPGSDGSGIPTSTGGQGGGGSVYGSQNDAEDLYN
Assay remarks: biochemical
Measurement setup: recombinant enzyme; Kinase-Glo; Fig. 3D; read-out: S. mansoni (IC50)
Recorded IC50 values for a group of compounds are listed next.
Number only, in nM; omit the unit.

Compound	IC50, nM
CC(C)N1CCN(CCNC2CCN(c3cccc(-c4cc5cc(F)ccc5[nH]4)c3)CC2)CC1 [UPCDC-30245, reference compound]	4100

Consider the compound shown here: c1ccc(CNc2nc(NCc3ccccc3)c3ccccc3n2)cc1 [DbeQ, reference compound] What is its recorded IC50? 12000

Item: COc1cccc2c(NCc3ccccc3)nc(-n3c(N)nc4ccccc43)nc12 [ML240, reference compound] 66

Item: "Cc1cc(OCc2nnc(SC3CCCC3)n2-c2cccnc2)ccc1-c1ccc(S(C)(=O)=O)cc1" 230

###

Target entity: H. sapiens p97 (P55072) (Homo sapiens, UniProt P55072)
Construct: 6xHis (C); made in house; host or cells: E. coli BL21 (DE3)
Sequence (P55072 whole entry): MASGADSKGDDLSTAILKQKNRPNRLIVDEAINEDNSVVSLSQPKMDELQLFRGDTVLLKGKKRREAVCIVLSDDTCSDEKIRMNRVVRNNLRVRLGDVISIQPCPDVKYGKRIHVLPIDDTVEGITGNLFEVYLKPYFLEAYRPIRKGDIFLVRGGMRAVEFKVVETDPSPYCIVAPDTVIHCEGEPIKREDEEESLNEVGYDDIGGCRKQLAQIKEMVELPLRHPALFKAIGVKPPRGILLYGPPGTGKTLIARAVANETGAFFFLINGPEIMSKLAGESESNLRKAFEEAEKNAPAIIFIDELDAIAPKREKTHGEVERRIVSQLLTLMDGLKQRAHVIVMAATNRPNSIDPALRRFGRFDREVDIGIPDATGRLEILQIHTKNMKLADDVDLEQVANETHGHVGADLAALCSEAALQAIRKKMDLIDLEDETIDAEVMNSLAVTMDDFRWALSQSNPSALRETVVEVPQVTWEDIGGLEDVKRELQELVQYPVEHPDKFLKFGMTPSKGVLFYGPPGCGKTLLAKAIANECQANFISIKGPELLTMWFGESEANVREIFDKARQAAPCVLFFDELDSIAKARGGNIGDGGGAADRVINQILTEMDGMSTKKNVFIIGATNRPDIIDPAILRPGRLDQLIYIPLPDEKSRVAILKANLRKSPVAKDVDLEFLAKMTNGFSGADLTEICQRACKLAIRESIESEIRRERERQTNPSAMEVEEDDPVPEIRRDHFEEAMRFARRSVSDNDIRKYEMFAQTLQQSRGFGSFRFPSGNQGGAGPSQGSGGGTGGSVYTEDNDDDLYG
Assay remarks: p97 ATPase activity, ATP consumption assay (Kinase-Glo), IC50 / counter screen
Format: biochemical
Measurement setup: Hsp97; re-tested screen compounds; 100 μM-1 nM; Fig. 4A
pIC50: −log10 of the molar value.
Reported endpoint: pIC50

// known answers, use as guide
Compound	Target entity	Result
O=C(C=Cc1ccccc1)Nc1ccc2oc(-c3ccccc3)nc2c1 [Compound 135]	H. sapiens p97 (P55072) (Homo sapiens, UniProt P55072)	< 4.00
O=C(CCc1ccccc1)Nc1ccc2oc(-c3ccccn3)nc2c1 [Compound 326]	H. sapiens p97 (P55072) (Homo sapiens, UniProt P55072)	< 4.00
O=C(/C=C\c1ccccc1)Nc1ccc2oc(-c3ccccc3)nc2c1 [Compound 324]	H. sapiens p97 (P55072) (Homo sapiens, UniProt P55072)	< 4.00

Consider the compound shown here: O=C(C#Cc1ccccc1)Nc1ccc2oc(-c3ccccn3)nc2c1 [Compound 243] What is its recorded pIC50? 4.70
